- Test system: SNB-75
- assayMethodText: NCI tumour cell line growth inhibition, 48 h
Active and inactive are the calls of the source. Cut-off read from the data, not from the text of the source: active = GI50 up to about 1.1 µM and inactive = higher. Peptide text beside a SMILES is read from it. * marks the point of attachment. OSu = O=C1CCC(=O)N1O*
Outcomes: 1 for active, 0 for inactive

compound	classAssignment
O=c1oc2ccccc2c(Nc2ccc3c(c2)Oc2ccccc2O3)c1[N+](=O)[O-]	0
Cc1coc2c1CC1(C)C(CCC(O)C1C)C2 (configuration not stated)	0
COC(=O)[C@]1(c2cc3ccccc3[nH]2)CC2CN(C(=O)OCc3ccccc3)C1CC2=O (some centres not stated)	0
CCC/C=C\C=C\C1(NS(=O)(=O)c2ccc(C)cc2)CCC(C(C)(C)C)CC1 (configuration not stated)	0
C=C1C(=O)O[C@@H]2[C@H]1CCC(C)=C1C=CC(=O)[C@]12C	0
O=C1C=CC(CC(=O)c2ccc3ccccc3c2)O1 (configuration not stated)	0
O=C(Nc1ccc(Nc2ccc(NC(=O)c3ccccc3)c3c2C(=O)c2ccccc2C3=O)c2c1C(=O)c1ccccc1C2=O)c1ccccc1	0
Cc1cc(Cl)ccc1NC(=O)CC1SC(N)=NC1=O (configuration not stated)	0
CCCCNCCCNCCCNC(=O)c1csc(-c2csc(CCNC(=O)C(NC(=O)C(C)C(O)C(C)NC(=O)C(NC(=O)c3nc(C(CC(N)=O)NCC(N)C(N)=O)nc(N)c3C)C(OC3OC(CO)C(O)C(O)C3OC3OC(CO)C(O)C(OC(N)=O)C3O)c3c[nH]cn3)C(C)O)n2)n1 (configuration not stated)	1
CC(C)N(C(=O)c1ccc(NCc2cc(O)ccc2O)cc1)C(C)C	0
COC1OC(COC(=O)NCCCCC(=O)C(F)(F)F)C(O)C(O)C1O (configuration not stated)	0
O=[N+]([O-])c1c(/C=N/c2ccccc2)oc(-c2ccc3c(c2)OCO3)c1-c1ccc2c(c1)OCO2	0
N=C(N)SCc1cn2ccccc2n1	0
[N-]=[N+]=NC1OC(=O)C(Cl)=C1N=P(c1ccccc1)(c1ccccc1)c1ccccc1 (configuration not stated)	0
Cc1cc(C)nc(NS(=O)(=O)c2ccc(NC(=O)c3cccc4c(N)c5ccccc5nc34)cc2)n1	0
NCCCCC(NC(=O)C(N)Cc1ccc(O)cc1)C(=O)NC(Cc1ccc(O)cc1)C(=O)NC(CCCCN)C(=O)ON1C(=O)CCC1=O (configuration not stated) (H-YKYK-OSu; configuration not given here)	0
CN(C)CCNc1nc2ccccc2c2c1CCCC2	0
C=C1C(=O)O[C@H]2[C@H]([C@H](C)CCCC(C)=O)O[C@H]([C@@]3(C)CCC(=O)O3)C[C@@H]12	0
COc1ccc(C(N)=O)cc1/N=N/N(C)C	0
CC(=O)N1c2ccccc2C2=NN(C)C(=N)SC21 (configuration not stated)	0
N#Cc1c(N2CCCC2)ncn(Cc2ccccc2)c1=S	0
CC1=N/C(=C\c2ccc(N)cc2)C(=O)N1Nc1nnc(NN2C(=O)/C(=C/c3ccc(N)cc3)N=C2C)c2ccccc12	0
